- Tested on: SNB-75
- EXPERIMENTAL DETAILS: NCI tumour cell line growth inhibition, 48 h
Calls of active or inactive are those of the source. No stated cut-off is given here; in the data, active = GI50 up to about 1.1 µM and inactive = higher.
Please respond with reported GI50 for every item in the list.

q: Give its GI50 value. Item: Nc1ccc2c(c1)NC(=O)[C@@H]1CCCN1C2=O
a: > 100 µM (inactive)

q: Give its GI50 value. Item: Cc1nc2[nH]ncn2c(=O)c1CCO
a: > 10 µM (inactive)

q: Give its GI50 value. Item: CN(C)c1ccc(/C=C/C(=O)N[C@@H]2C(=O)N3[C@@H]2SC(C)(C)[C@@H]3C(=O)O)cc1
a: > 100 µM (inactive)

q: Give its GI50 value. Item: COc1cccc(C2C(C(=O)O)=C(CO)Oc3cc4c(cc32)OCO4)c1 (stereo not drawn)
a: > 100 µM (inactive)

q: Give its GI50 value. Item: CCOC(=O)c1[nH]cc(C)c1-c1ccc2c(-c3ccccc3)nc3ccccc3n12
a: 1.85 µM (inactive)

q: Give its GI50 value. Item: COc1cc(OC)c(/C=C2\N=C(C)N(Nc3nnc(NN4C(=O)/C(=C/c5c(OC)cc(OC)cc5OC)N=C4C)c4ccccc34)C2=O)c(OC)c1
a: 42.3 µM (inactive)

q: Give its GI50 value. Item: COc1cc2c(cc1OCc1ccccc1)NC(=S)[C@@H]1CCCN1C2=S
a: 15 µM (inactive)

q: Give its GI50 value. Item: Cc1cc2cc3c(Cl)c(CCCl)c(C)nc3cc2c(Cl)c1CCCl
a: 17 µM (inactive)

q: Give its GI50 value. Item: C/C(CC(=O)Nc1ccc(Cl)cc1)=N\NC(N)=S
a: > 100 µM (inactive)

q: Give its GI50 value. Item: Cc1cc2oc3c(ccc(=O)n3C)c(=O)c2c(C)c1Cl
a: > 100 µM (inactive)

q: Give its GI50 value. Item: CCC(C)C1NC(=O)C(NC(=O)C(CC(C)C)N(C)C(=O)[C@@H]2C=CCN2C(=O)[C@H](C)O)C(C)OC(=O)[C@H](Cc2ccc(OC)cc2)N(C)C(=O)[C@@H]2CCCN2C(=O)[C@H](CC(C)C)NC(=O)C(C)C(=O)[C@H](C(C)C)OC(=O)CC1O (stereo partly drawn)
a: 0.00198 µM (active)

q: Give its GI50 value. Item: CCCCCCCCCCCCCCCCCCNc1ccn(C2OC(COP(=O)(O)OCC3OC(n4cc(F)c(=O)[nH]c4=O)CC3O)C(O)C2O)c(=O)n1 (stereo not drawn)
a: 1.18 µM (inactive)

q: Give its GI50 value. Item: O=C1C=CC(=O)C2=C1[C@@H](O)C1CC=CC3C(=O)O[C@@H]2C31 (stereo partly drawn)
a: 24.9 µM (inactive)

q: Give its GI50 value. Item: c1ccc([P+](Cc2ccc(C[P+](c3ccccc3)(c3ccccc3)c3ccccc3)s2)(c2ccccc2)c2ccccc2)cc1
a: > 100 µM (inactive)

q: Give its GI50 value. Item: CCC1(O)C(=O)OCc2c1cc1n(c2=O)Cc2cc3cc4c(cc3nc2-1)OCO4 (stereo not drawn)
a: < 0.01 µM (active)

q: Give its GI50 value. Item: CCOC(=O)c1c(O)nc(O)c(CC)c1C
a: > 100 µM (inactive)

q: Give its GI50 value. Item: CNC1=C(C)C(=O)C(C)=C(C(C)(C)CC(=O)n2cc(F)c(=O)[nH]c2=O)C1=O
a: 69.3 µM (inactive)

q: Give its GI50 value. Item: Cc1c(C(=O)/C=C/c2ccc([N+](=O)[O-])cc2)[n+]([O-])c2ccccc2[n+]1[O-]
a: 41.4 µM (inactive)

----------
Please respond with reported GI50 for every item in the list.
- Test system: COLO 205
- EXPERIMENTAL DETAILS: NCI tumour cell line growth inhibition, 48 h
Activity calls are given as the source filed them. No stated cut-off is given here; in the data, active = GI50 up to about 1.1 µM and inactive = higher.

q: Give its GI50 value. Item: O=C1C(=O)N(C2C3CC4CC(C3)CC2C4)C(=O)C(=O)C1c1nc2ccccc2o1 (stereo not given)
a: 51.6 µM (inactive)

q: Give its GI50 value. Item: CCCCC1(N=[N+]=[N-])C(=O)C2C=CC=C3c4ccccc4N(C1=O)C32 (stereo not given)
a: 18.5 µM (inactive)

q: Give its GI50 value. Item: Nc1ncc2c(n1)-c1ccccc1OC2N1CCCC1 (stereo not given)
a: > 100 µM (inactive)

q: Give its GI50 value. Item: COC1CC(OC2CCC3(C)C(=CCC4C3C(OC(C)=O)C(OC(=O)CC(C)C)C3(C)C(C(C)=O)CCC43O)C2)OC(C)C1OC1CC(OC)C(OC2CC(OC)C(OC3OC(C)C(O)C(OC)C3O)C(C)O2)C(C)O1 (stereo not given)
a: 22 µM (inactive)

q: Give its GI50 value. Item: O=C(CCc1cc(O)cc(O)c1)NCCc1ccc(O)c(O)c1
a: > 100 µM (inactive)

q: Give its GI50 value. Item: CCOC1OCCCC1Br (stereo not given)
a: > 100 µM (inactive)

q: Give its GI50 value. Item: C/N=C(\N)c1ccc(NC(=N)c2ccc(C(=N)Nc3ccc(/C(N)=N/C)cc3)cc2)cc1
a: > 100 µM (inactive)

q: Give its GI50 value. Item: CC(CCC(=O)O)c1ccc(Br)cc1 (stereo not given)
a: > 100 µM (inactive)

q: Give its GI50 value. Item: COc1cccc2c1c1ccc3c(c1n2C)C(=O)C=CC3=O
a: 6.15 µM (inactive)

q: Give its GI50 value. Item: C=CS(=O)(=O)CCN1CC1
a: > 10 µM (inactive)

----------
Please respond with reported GI50 for every item in the list.
- Test system: HOP-62
- EXPERIMENTAL DETAILS: NCI tumour cell line growth inhibition, 48 h
Calls of active or inactive are those of the source. Rule as the data show it: active = GI50 up to about 1.1 µM and inactive = higher.

q: Give its GI50 value. Item: COc1cc(C(C)(C)C)c(OC(=O)/C=C/C(=O)O/C=C/[N+](=O)[O-])c(C(C)(C)C)c1
a: > 100 µM (inactive)

q: Give its GI50 value. Item: Clc1sc(Cl)c2c1[C@@H](Cl)C[C@@H]2Cl
a: > 100 µM (inactive)

q: Give its GI50 value. Item: CC1CNC(NS(=O)(=O)c2cc(C(=O)Nc3ccc(Cl)cc3)c(Cl)cc2S)=NN1 (centres undefined)
a: 41.5 µM (inactive)

q: Give its GI50 value. Item: OC(c1ccc(C(F)(F)F)cc1)C(F)(F)c1nc2ccccc2o1 (centres undefined)
a: > 100 µM (inactive)

q: Give its GI50 value. Item: COC1(C)/C=N/CC(C)(C)NC(=O)C(C)(OC)/C=N/CC(C)(C)NC1=O (centres undefined)
a: > 10 µM (inactive)

q: Give its GI50 value. Item: Cn1c(-c2ccc(-c3cc(-c4cccs4)c(-c4cccs4)n3C)cc2)cc(-c2cccs2)c1-c1cccs1
a: > 100 µM (inactive)

q: Give its GI50 value. Item: CC(C)(C)C(=O)OCC1OC(N=[N+]=[N-])C(OC(=O)C(C)(C)C)C(OC(=O)C(C)(C)C)C1OC(=O)C(C)(C)C (centres undefined)
a: > 100 µM (inactive)

q: Give its GI50 value. Item: COc1cccc(NC(=O)CSc2nnc(-c3ccc(/N=C\c4ccc(Cl)cc4)cc3)o2)c1
a: 31.6 µM (inactive)

q: Give its GI50 value. Item: NC(=S)N1N=C2c3ccccc3CC[C@H]2[C@@H]1c1cccs1
a: 33.3 µM (inactive)

----------
- Tested on: XF498
- EXPERIMENTAL DETAILS: NCI tumour cell line growth inhibition, 48 h
Activity calls are given as the source filed them. Rule as the data show it: active = GI50 up to about 1.1 µM and inactive = higher.
Respond using exactly one of the listed classes: 1 for active, 0 for inactive

q: Hey, what did the test say about CCC1(O)C(=O)OCc2c1cc1n(c2=O)Cc2cc3cc4c(cc3nc2-1)OCO4 (stereo unspecified) ?
a: 1

q: Hey, what did the test say about Clc1ccc2c(NCCCCCCNc3ccnc4cc(Cl)ccc34)ccnc2c1 ?
a: 0

q: Hey, what did the test say about CCCCNC1=C2C(=O)NN=C2CO1 ?
a: 0

q: Hey, what did the test say about O=C1COc2cc3c(cc2N1)SCC(=O)N3 ?
a: 0

q: Hey, what did the test say about Cc1c(C(=O)/C=C/c2ccc([N+](=O)[O-])cc2)[n+]([O-])c2ccccc2[n+]1[O-] ?
a: 0

q: Hey, what did the test say about COc1cccc(NC(=O)CSc2nnc(-c3ccc(/N=C\c4ccc(Cl)cc4)cc3)o2)c1 ?
a: 0

q: Hey, what did the test say about Nc1nnc(CCC(=O)Nc2cc(Cl)ccc2Cl)n1N ?
a: 0

q: Hey, what did the test say about CC(=O)Oc1ccc2c(=O)c(C(C)=O)coc2c1 ?
a: 0

q: Hey, what did the test say about CSCCOC(=O)C(=[N+]=[N-])c1ccc([N+](=O)[O-])cc1 ?
a: 0

q: Hey, what did the test say about COc1cccc2c1c1ccc3c(c1n2C)C(=O)C=CC3=O ?
a: 0

q: Hey, what did the test say about COc1ccc([Se][Se]c2ccc(OC)cc2OC)c(OC)c1 ?
a: 0
